# Ki per record follows
Target: human CB1 receptor (Homo sapiens (Human), UniProt P21554)
Sequence (P21554 whole entry): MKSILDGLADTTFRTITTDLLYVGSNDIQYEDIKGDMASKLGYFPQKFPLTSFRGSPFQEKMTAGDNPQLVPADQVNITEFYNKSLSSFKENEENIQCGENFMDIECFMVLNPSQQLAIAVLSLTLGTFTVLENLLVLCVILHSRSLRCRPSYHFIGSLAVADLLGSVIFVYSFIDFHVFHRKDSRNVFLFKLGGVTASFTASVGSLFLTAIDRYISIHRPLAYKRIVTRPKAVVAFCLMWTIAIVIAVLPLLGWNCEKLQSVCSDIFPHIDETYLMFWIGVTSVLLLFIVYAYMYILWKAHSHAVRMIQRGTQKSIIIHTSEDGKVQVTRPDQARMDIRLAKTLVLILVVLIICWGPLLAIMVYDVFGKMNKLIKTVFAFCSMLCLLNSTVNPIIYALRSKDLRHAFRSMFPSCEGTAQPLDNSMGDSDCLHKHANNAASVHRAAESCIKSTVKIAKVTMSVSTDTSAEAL

Reference set, count: 3
{"columns": ["Structure string", "Test system", "Ki"],
 "data": [
  ["C#Cc1cccc(C2(C(F)(F)F)N=N2)c1Cn1nnc2c(N3CC[C@H](O)C3)nc(C(C)(C)C)nc21", "human CB1 receptor (Homo sapiens (Human), UniProt P21554)", "> 10000 nM"],
  ["CC(C)(C)c1nc(N2CCC3(C2)N=N3)c2nnn(Cc3ccccc3Cl)c2n1", "human CB1 receptor (Homo sapiens (Human), UniProt P21554)", "321 nM"],
  ["FC(F)(F)c1ccccc1Cn1nnc2c(N3CCC4(C3)N=N4)nc(C(F)(F)c3ccccc3)nc21", "human CB1 receptor (Homo sapiens (Human), UniProt P21554)", "993 nM"]
]}

Prompt: Form field - read-out: Ki; system: human CB1 receptor (Homo sapiens (Human), UniProt P21554); submitted item: C#CCCC1(CCNC(=O)c2nonc2Cn2nnc3c(N4CC[C@H](O)C4)nc(C(C)(C)C)nc32)N=N1
Completion: > 10000 nM

Prompt: Then CC(C)(C)c1nc(N2CCC(F)(F)C2)c2nnn(Cc3ccccc3C3(C(F)(F)F)N=N3)c2n1 ?
Completion: 488 nM

Prompt: Then Cc1nonc1Cn1nnc2c(N3CCC4(C3)N=N4)nc(C(C)(C)C)nc21 ?
Completion: 2960 nM

Prompt: Then FC(F)(c1ccccc1)c1nc(N2CCC3(C2)N=N3)c2nnn(Cc3ccccc3Cl)c2n1 ?
Completion: 799 nM

Prompt: Then C#CCCC1(CCNC(=O)c2nonc2Cn2nnc3c(N4CCC(F)(F)C4)nc(C(C)(C)C)nc32)N=N1 ?
Completion: > 10000 nM
